Molecular target: T1, HUMAN B7H3 (Biacore analyte) (human, UniProt Q5ZPR3 29-461, limits assumed)
T1 construct: also called hB7H3
T1 sequence (looked up): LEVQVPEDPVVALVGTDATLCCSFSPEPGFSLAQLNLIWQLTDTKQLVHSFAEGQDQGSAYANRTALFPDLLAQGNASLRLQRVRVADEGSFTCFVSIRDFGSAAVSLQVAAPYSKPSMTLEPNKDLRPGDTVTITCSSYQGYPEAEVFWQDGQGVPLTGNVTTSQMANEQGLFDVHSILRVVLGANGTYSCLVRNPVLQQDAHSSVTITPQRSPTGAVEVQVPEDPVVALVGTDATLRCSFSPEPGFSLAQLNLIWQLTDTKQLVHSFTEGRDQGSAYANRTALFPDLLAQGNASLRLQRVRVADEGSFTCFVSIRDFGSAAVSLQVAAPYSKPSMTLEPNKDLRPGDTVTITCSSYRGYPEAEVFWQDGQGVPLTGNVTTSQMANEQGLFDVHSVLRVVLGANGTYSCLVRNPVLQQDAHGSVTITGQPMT
Assay: SPR, Biacore 8K, antibody captured, B7H3 as analyte, 1:1 binding
Reported Metric: koff (s⁻¹)

| Binder | Reported Metric | U | Reported Result |
| --- | --- | --- | --- |
| 20-A2-D10-G8 (human IgG1 chimeric antibody) (antibody, V domains shown, human IgG1 chimeric antibody of the mouse clone) VH: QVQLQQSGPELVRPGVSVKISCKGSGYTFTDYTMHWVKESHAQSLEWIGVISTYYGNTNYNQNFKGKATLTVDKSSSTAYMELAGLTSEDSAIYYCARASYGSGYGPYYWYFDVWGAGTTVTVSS VL: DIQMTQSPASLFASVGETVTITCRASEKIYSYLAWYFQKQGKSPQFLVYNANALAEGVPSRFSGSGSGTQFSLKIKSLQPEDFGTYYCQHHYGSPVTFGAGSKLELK | koff | s⁻¹ | 0.000282 |
| 18-F9-D8-G7 (human IgG1 chimeric antibody) (antibody, V domains shown, human IgG1 chimeric antibody of the mouse clone) VH: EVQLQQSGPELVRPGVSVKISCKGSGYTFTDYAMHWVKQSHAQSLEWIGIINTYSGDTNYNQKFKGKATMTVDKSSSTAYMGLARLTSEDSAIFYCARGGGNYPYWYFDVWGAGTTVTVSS VL: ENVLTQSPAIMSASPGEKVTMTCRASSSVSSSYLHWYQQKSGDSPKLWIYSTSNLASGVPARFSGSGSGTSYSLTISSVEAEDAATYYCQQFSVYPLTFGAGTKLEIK | koff | s⁻¹ | 0.000239 |

Origin of measurements: patent US20240400689A1
